System: NCI-H226 lung
test-protocol: NCI tumour cell line growth inhibition, 48 h
measure-name: TGI

Some solved entries appear below for comparison.
CC1(C)N=C(/C=N/O)C(C)(C)N1O; > 100 µM
O=C1NC(=O)C(=O)C(c2nc3ccccc3s2)C1=O; > 100 µM
CC1=C(C(=O)Nc2ccccc2)C(c2ccc(C)o2)C(C#N)=C(SCc2ccccc2)N1 (stereo unspecified); > 100 µM
N#Cc1nn(C2OC(COC(=O)c3ccccc3)C(OC(=O)c3ccccc3)C2OC(=O)c2ccccc2)c2nc[nH]c(=O)c12 (stereo unspecified); > 100 µM

Q: Tell me the measured TGI of Cc1ccc(O)c(-c2csc(NCN3CCN(CNc4nc(-c5cc(C)ccc5O)cs4)CC3)n2)c1 , please.
A: > 100 µM

Q: What value of measured TGI is listed for C[C@@H](Oc1cc(NS(=O)(=O)N2CCC2)nc(SCc2cccc(F)c2F)n1)[C@@H](O)CO ?
A: > 100 µM

Q: Which TGI value is on record for NCCCc1c(-c2ccccc2)nc(N)[nH]c1=O ?
A: > 100 µM

Q: # input compound: CCCC#CC(O)(C(=O)OC1CCN(C)CC1)C1CCCCC1 (stereo unspecified) ; wanted: its TGI
A: > 100 µM

Q: Which TGI reading was recorded for the compound CC1(C)C(=O)C2(OS(=O)(=O)C(F)(F)F)CCC1C2 (stereo unspecified) ?
A: > 100 µM

Q: I have this compound here, CNC(=O)c1cncc(/C=C/c2c(C)cccc2C)c1 , and I need its recorded TGI.
A: > 25 µM

Q: Look at this compound and give its reported TGI. S=P(c1ccccc1)(c1ccccc1)C1(C2(P(=S)(c3ccccc3)c3ccccc3)CC2)CC1
A: > 100 µM

* * *

Tested on: HL-60(TB) leukemia
test-protocol: NCI tumour cell line growth inhibition, 48 h
measure-name: TGI

Illustrative cases are given below, each with its answer.
O=C(N/N=C\c1ccc([N+](=O)[O-])cc1)c1ccccc1Nc1ccccc1C(=O)N/N=C/c1ccc([N+](=O)[O-])cc1; > 100 µM
N=C1C(c2nc3ccccc3s2)=C(O)CN1c1ccc(Cl)cc1Cl; > 100 µM

Q: Name the recorded TGI for N#Cc1ccc(-c2nc3ccc(Cl)cc3[nH]2)cc1 .
A: > 100 µM

* * *

Tested on: NCI-H522 lung
test-protocol: NCI tumour cell line growth inhibition, 48 h
measure-name: GI50

O=C(O[C@H]1CN[C@H](C#Cc2cc3ncnc(Nc4ccc(OCc5cccc(F)c5)c(Cl)c4)c3s2)C1)N1CCOCC1; 1410 nM
COc1ccc(Cl)cc1NC(=O)c1c(NC(=O)C(F)(F)C(F)(F)F)sc2c1CCCCC2; 588 nM
C/C=C1\C(=O)O[C@@H]2C1C[C@@H]1O[C@H]2[C@H](C)CCC/C(C)=C/CC[C@@]1(C)O (some centres undefined); 2290 nM
C[C@@H](Oc1cc(NS(=O)(=O)N2CCC2)nc(SCc2cccc(F)c2F)n1)[C@@H](O)CO; > 100000 nM
C=C1SC(=Nc2ccccc2Cl)N(C(=O)c2sc3ccccc3c2Cl)C1(C)C; 3030 nM
COc1ccccc1N1CCN(C(=O)c2ccc(NS(=O)(=O)c3cccc4cccnc34)cc2)CC1; 22200 nM
CCC1CCCCN1C(=S)N/N=C(\C)c1ccccn1 (centres undefined); 91.2 nM
O=C1CCC2=C3C4CCCCC4C(=O)C4CCCC(OC2C1)C34 (centres undefined); 434 nM

Q: Recorded GI50 of COc1cc(/C=C2\CN(S(=O)(=O)c3ccc(C)cc3)C/C(=C\c3cc(CN4CCCCC4)c(O)c(OC)c3)C2=O)cc(CN2CCCCC2)c1O , please.
A: 306 nM

* * *

Test system: RXF 393 renal
test-protocol: NCI tumour cell line growth inhibition, 48 h
List of log10 of TGI values.
The figures below represent log10 of TGI, where TGI is stated in µM.

// known answers, use as guide
O=S(=O)(NCCCNc1cc(-c2cn(-c3ccccc3)nc2-c2cccc(O)c2)ccn1)c1cccc2ccccc12; 0.70
N#CC(N=Nc1ccccc1)c1nc2ccccc2o1 (configuration not stated); 1.79
CN(C)CCCn1c(-c2cc(C(C)(C)C)c(O)c(C(C)(C)C)c2)csc1=Nc1ccccc1; 0.60
C/C=C1\C(=O)O[C@@H]2C1C[C@@H]1O[C@H]2[C@H](C)CCC/C(C)=C/CC[C@@]1(C)O (some centres not stated); 0.84
CC1OC(O[C@H]2/C=C/C=C/C=C/C=C/C=C/C=C/C=C/[C@H](C)[C@@H](O)[C@@H](C)[C@H](C)OC(=O)C[C@H](O)C[C@H](O)CC[C@@H](O)[C@H](O)C[C@H](O)C[C@]3(O)C[C@H](O)[C@@H](C(=O)O)[C@H](C2)O3)C(O)C(N)C1O (some centres not stated); 1.26

Q: Give its log10 of TGI value. Item: Oc1cccc(Cn2c(-c3cccc(O)c3O)nc3ccccc32)c1O
A: 1.40

Q: Could you share which log10 of TGI value was measured for O=C(Nc1ccc(Cl)cc1)c1cc2cc(F)ccc2cc1O ?
A: 1.21

Q: Entry O=C1c2cccc3cc([N+](=O)[O-])cc(c23)C(=O)N1CCN1CCCC1 has what log10 of TGI?
A: 0.48

Q: What does the data say about its log10 of TGI? Entry: CC(=O)O[C@H]1CCC2[C@@H]3CCC4Nc5c(cnn5-c5ccccc5)C[C@]4(C)C3CC[C@@]21C (some centres not stated)
A: 1.39

Q: Query (compound): CC(C)(C)c1ccc2c(c1)CNCCNCCNCc1cc(C(C)(C)C)ccc1OCC1(CO2)COc2ccc(C(C)(C)C)cc2CNCCNCCNCc2cc(C(C)(C)C)ccc2OC1 ; field requested: log10 of TGI
A: 0.57

Q: Recorded log10 of TGI for O=C(NCCCCNCCCNC(=O)c1cc(-c2ccccc2)nc2ccccc12)c1cc(-c2ccccc2)nc2ccccc12 , please?
A: 0.60

Q: log10 of TGI for Cc1ccc([N+](=O)[O-])cc1S(=O)(=O)Nc1ccc(C2=NNC(c3cccs3)C2)cc1 (configuration not stated) ?
A: 1.59

* * *

Test system: M19-MEL melanoma
test-protocol: NCI tumour cell line growth inhibition, 48 h
measure-name: TGI

COc1cc2ccnc3c2c(c1OC)CC1CC(O)C(OC)CC31 (stereo not drawn); > 100 µM
NNC(=O)CCC(=O)Nc1ccc(Cl)cc1Cl; > 100 µM

Below: the item to evaluate.
Q: Value lookup for TGI; key = O=C(N/C(=C\c1ccc([N+](=O)[O-])cc1)c1nc2ccc(Cl)cc2[nH]1)c1ccccc1
A: > 100 µM

* * *

System: U251 CNS
test-protocol: NCI tumour cell line growth inhibition, 48 h
measure-name: TGI

As a guide, the following entries are already answered.
COc1cc2c(cc1OC)C(Cc1ccccc1CCCl)=NCC2; > 100 µM
C[C@]12CC(C#N)C(=O)C(O)=C1CC[C@@H]1C2CC[C@@]2(C)C1CC[C@@H]2O (stereo partly specified); > 100 µM
COC1(OC)C2(Cl)C(Cl)=C(Cl)C1(Cl)C1COCC12 (stereo unspecified); > 75 µM
COc1c(B(O)O)cccc1-c1nc2c(F)cc3[nH]ncc3c2c2c1CCCC2; > 44.9 µM
CC(=O)NNC(=S)/N=C/c1c(O)cc(C)oc1=O; > 100 µM

Next up:
Q: Requested field: TGI. Item: CC1(C)C(=O)C2(OS(=O)(=O)C(F)(F)F)CCC1C2 (stereo unspecified)
A: > 100 µM

* * *

Test system: SF-268 CNS
test-protocol: NCI tumour cell line growth inhibition, 48 h
measure-name: TGI

Q: Give its TGI value. Item: C[C@@H](Oc1cc(NS(=O)(=O)N2CCC2)nc(SCc2cccc(F)c2F)n1)[C@@H](O)CO
A: > 100 µM

Q: So what's the measured TGI for this one? Cc1ccc(NC(=O)CC/C(CC(=O)c2ccc(Cl)cc2)=N\NC(=O)C(=O)NN)cc1C
A: > 100 µM

Q: Query (compound): O=C(CCc1ccccc1CO)NCCc1ccccc1 ; field requested: TGI
A: > 100 µM

* * *

Test system: HS 578T breast
test-protocol: NCI tumour cell line growth inhibition, 48 h
Where a SMILES comes first, the peptide text is derived from it. The star is where a group is joined. Boc = CC(C)(C)OC(=O)*
measure-name: TGI

CC(=O)Nc1ccc2oc(=O)c3ccccc3c2c1; > 100 µM
CCOCC(NC(=O)C(CC(C)C)NC(=O)OC(C)(C)C)C(N)=O (stereo not drawn) (Boc-Leu-Ser(Et)-NH2; configuration not given here); > 100 µM
Cc1ccc(/C=N/Nc2nncc3ccccc23)s1; > 100 µM
COC1CC2C=CC3C4OC2(/C(C)=C/C(C)C(C(C)O)OC1=O)C3C(O)C(C)C4OC(=O)c1ccc[nH]1 (configuration not stated); > 100 µM
CC1(C)CCC2(C(=O)O)CC[C@]3(C)C(=CCC4C5(C)CC[C@H](OC6OC(C(=O)O)C(O)C(OC7OC(CO)C(O)C(O)C7O)C6OC6OC(CO)C(O)C(O)C6O)C(C)(C)C5CCC43C)C2C1 (some centres not stated); > 100 µM
CC1(C)N=C(/C=N/O)C(C)(C)N1O; > 100 µM

Q: Look up TGI for this compound: Cc1ccc(S(=O)(=O)/N=C(\[O-])C2=C(c3ccccc3)NN(C)c3nc4cccc[n+]4nc32)cc1
A: > 100 µM

Taken from PubChem BioAssay (NCI).
